Method: Catalase activity, conversion of H2O2 to oxygen, polarographic oxygen electrode (Example 2)
Assay type: biochemical
Reported Conditions: relative to C7 (C7 = 100)
Please map values of Catalase rate to classes as shown: 1: < 40; 2: ≥ 40 and < 200; 3: ≥ 200

>  <Molecule>
COc1cccc2c1[O][Mn]([O]C(C)=O)[O]c1c(cccc1OC)C=NC1CCCCC1N=C2 (centres unmarked)

>  <Label Value>
2

$$$$
>  <Molecule>
CC(=O)[O][Mn]1[O]c2ccccc2C=NCC(C)(C)CN=Cc2ccccc2[O]1

>  <Label Value>
2

$$$$
>  <Molecule>
CC(=O)[O][Mn]1[O]c2ccccc2C(C)=NCCN=C(C)c2ccccc2[O]1

>  <Label Value>
1

$$$$
>  <Molecule>
[O]=[V]1[O]c2ccccc2C=NCCN=Cc2ccccc2[O]1

>  <Label Value>
1

$$$$
>  <Molecule>
COc1cccc2c1[O][Mn]([Cl])[O]c1c(cccc1OC)C=NCCN=C2

>  <Label Value>
2

$$$$
>  <Molecule>
COc1cccc2c1[O][Mn]([O]C(C)=O)[O]c1c(cccc1OC)C=Nc1ncccc1N=C2

>  <Label Value>
3

$$$$
>  <Molecule>
COc1ccc2c(c1)[O][Mn]([Cl])[O]c1cc(OC)ccc1C=NCCN=C2

>  <Label Value>
2

$$$$
>  <Molecule>
COc1cccc2c1[O][Mn]([Cl])[O]c1c(cccc1OC)C=NC1CCCCC1N=C2 (centres unmarked)

>  <Label Value>
2

$$$$
>  <Molecule>
[Cl][Mn]1[O]c2ccccc2C=NCCN=Cc2ccccc2[O]1

>  <Label Value>
2

$$$$
>  <Molecule>
[Cl][Mn]1[O]c2ccccc2CNCCNCc2ccccc2[O]1

>  <Label Value>
1

$$$$
>  <Molecule>
CC(=O)[O][Mn]1[O]c2ccccc2C=Nc2ccccc2N=Cc2ccccc2[O]1

>  <Label Value>
3

$$$$
>  <Molecule>
COc1cccc2c1[O][Mn]([Cl])[O]c1c(cccc1OC)C=Nc1ccccc1N=C2

>  <Label Value>
3

$$$$
>  <Molecule>
CC(=O)[O][Mn]1[O]c2ccccc2CNCCNCc2ccccc2[O]1

>  <Label Value>
2

$$$$
>  <Molecule>
COc1cc(Br)c2c(c1)C=Nc1ccccc1N=Cc1cc(OC)cc(Br)c1[O][Mn]([O]C(C)=O)[O]2

>  <Label Value>
3

$$$$
>  <Molecule>
COc1ccc2c(c1)[O][Mn]([O]C(C)=O)[O]c1cc(OC)ccc1C=NCCN=C2

>  <Label Value>
1

$$$$
>  <Molecule>
COc1cccc2c1[O][Mn]([O]C(C)=O)[O]c1c(cccc1OC)C=NCCCN=C2

>  <Label Value>
1

$$$$
